# Test system: Musca domestica
# run_description: Insecticidal activity against 3 to 5 day old female Musca domestica (house fly) assessed as compound level causing insect mortality per female applied topically on notum measured after 24 hr
# Type: functional
Record form. Attribute: LD50. Fill in for each entry.
Give bare numbers, in µg.

{"columns": ["mol_smiles", "unit_abbrev", "assay_value"],
 "data": [
  ["CN1CCC[C@H]1c1cccnc1", "µg", 14.8]
]}

// each listed molecule needs a value for LD50
1. c1ccc(C2(N3CCCCC3)CCCCC2)cc1
2. CN(C)C1CSSC1
3. c1csc(C2(N3CCCCC3)CCCCC2)c1

18.4
0.49
25

* * *

# run_description: Displacement of [3H]alpha-BGT from nAChR in Apis mellifera (honeybee) head homogenates
# Type: tissue-based
pIC50: −log10 of the molar value.
Lab note: compare pIC50 against 5. Equal or greater, write condition met. Smaller, write condition not met.

{"columns": ["molecule", "class_label"],
 "data": [
  ["COc1cc2c3cc1Oc1cc(ccc1O)C[C@@H]1c4c(cc(OC)c(O)c4Oc4ccc(cc4)C[C@@H]3N(C)CC2)CC[N+]1(C)C", "condition met"]
]}

Textbook exercise: given the entry CN(C)CCCN1c2ccccc2Sc2ccc(Cl)cc21 [CHLORPROMAZINE] , state whether its pIC50 is greater than or equal to 5. condition not met

Textbook exercise: given the entry CCC[C@H]1CCCCN1 [CONIINE] , state whether its pIC50 is greater than or equal to 5. condition not met

Textbook exercise: given the entry CN1CCC[C@H]1c1cccnc1 [NICOTINE] , state whether its pIC50 is greater than or equal to 5. condition met

* * *

# run_description: Displacement of [3H]alpha-BGT from nAChR in Apis mellifera (honeybee) head homogenates
# Format: tissue-based
Lab note: compare IC50 with 60 µM, writing Criterion met if less and Criterion not met if equal or more.

{"columns": ["molecule", "class_label"],
 "data": [
  ["CN(C)C1CSSC1 [NEREISTOXIN]", "Criterion not met"]
]}

Okay, next one:
Here's an entry: CNC1(C)C2CCC(C2)C1(C)C (stereo unspecified) [MECAMYLAMINE] . Is its IC50 below 60 µM? Criterion not met

* * *

Record form. Attribute: log10 IC50. Fill in for each entry.
# run_description: Displacement of [3H]alpha-BGT from nAChR in Apis mellifera (honeybee) head homogenates
# Format: tissue-based
Scale type: logarithmic (base 10). Underlying IC50 unit: µM.

{"columns": ["molecule", "assay_endpoint", "assay_value"],
 "data": [
  ["C[N+]1(C)CCN(c2ccccc2)CC1 [DIMETHYLPHENYLPIPERAZINIUM IODIDE]", "log10 IC50", 0.87],
  ["O=c1cccc2n1C[C@@H]1CNC[C@H]2C1", "log10 IC50", -0.57],
  ["O=[N+]([O-])/N=C1\\NCCN1Cc1ccc(Cl)nc1", "log10 IC50", 0.29],
  ["CN1[C@@H](CC(=O)c2ccccc2)CCC[C@H]1C[C@H](O)c1ccccc1", "log10 IC50", 0.66]
]}

Okay, now this molecule:
Please give the measured log10 IC50 for this molecule: "C[N+](C)(C)CCOC(N)=O" 1.95

* * *

# run_description: Displacement of [3H]PCP from nAChR in Apis mellifera (honeybee0 head homogenates
# Assay type: tissue-based
assay_endpoint: IC50 (µM)
Give bare numbers, in µM.

{"columns": ["compound", "unit_abbrev", "IC50"],
 "data": [
  ["c1cncc(C2CCCCN2)c1 (stereo not drawn) [DL-ANABASINE]", "µM", 4.99],
  ["CSC(C)N1CCN/C1=C\\[N+](=O)[O-] (configuration not stated)", "µM", 336],
  ["c1csc(C2(N3CCCCC3)CCCCC2)c1 [TENOCYCLIDINE]", "µM", 0.082],
  ["CCC[C@H]1CCCCN1 [CONIINE]", "µM", 5.56]
]}

// each listed compound needs a value for IC50
1. CCN(Cc1ccc(Cl)nc1)/C(=C/[N+](=O)[O-])NC [NITENPYRAM]
2. CN1[C@@H](CC(=O)c2ccccc2)CCC[C@H]1C[C@H](O)c1ccccc1 [LOBELINE]
3. CN1CCC[C@H]1c1cccnc1 [NICOTINE]
4. CNC1(c2ccccc2Cl)CCCCC1=O (configuration not stated) [KETAMINE]
5. CN(C)C1CSSC1 [NEREISTOXIN]
6. O=[N+]([O-])C=C1NCCCS1
7. C/C(=N\C#N)N(C)Cc1ccc(Cl)nc1 [ACETAMIPRID]

1. 27.6
2. 158
3. 1.14
4. 83.2
5. 30.7
6. 231
7. 277
